# Test system: RXF 393 renal
# test: NCI tumour cell line growth inhibition, 48 h
Class met: TGI at least 30 µM. Class not met: TGI below 30 µM.

1) CN(C)CCOc1ccc(I)cc1Cc1ccccc1: met

Turning now to a further compound:
Q: API: above_or_equal(metric=TGI, cutoff=30 µM) for item CC[C@@H](CCCC[C@@H]1CC[C@H]2CC(=O)C[C@@H]12)OC
Ans: met

---

# Tested on: RPMI-8226 leukemia
# test: NCI tumour cell line growth inhibition, 48 h; in the data active = GI50 below about 0.43 µM; inactive = the rest
Could you please pick one outcome from this set? active, inactive

Q: In this assay, the call recorded for COc1ccc(/C=C2\CN(C(=O)CCN3CCC(=NO)CC3)C/C(=C\c3ccc(OC)cc3)C2=O)cc1 was what?
Ans: inactive

Q: In this assay, the call recorded for OB([O][Hg][c]1ccccc1)[O][Hg][c]1ccccc1 was what?
Ans: active

Q: In this assay, the call recorded for Cc1ccc(-c2c(C#N)c(N)nc(N3CCOCC3)c2C#N)o1 was what?
Ans: inactive
